target: Human G9a (Homo sapiens, UniProt Q96KQ7); test: G9a assay (3H-AdoMet filter-binding); type: biochemical; settings: 50.0 μM
Sequence (Q96KQ7 786-1210 limits assumed): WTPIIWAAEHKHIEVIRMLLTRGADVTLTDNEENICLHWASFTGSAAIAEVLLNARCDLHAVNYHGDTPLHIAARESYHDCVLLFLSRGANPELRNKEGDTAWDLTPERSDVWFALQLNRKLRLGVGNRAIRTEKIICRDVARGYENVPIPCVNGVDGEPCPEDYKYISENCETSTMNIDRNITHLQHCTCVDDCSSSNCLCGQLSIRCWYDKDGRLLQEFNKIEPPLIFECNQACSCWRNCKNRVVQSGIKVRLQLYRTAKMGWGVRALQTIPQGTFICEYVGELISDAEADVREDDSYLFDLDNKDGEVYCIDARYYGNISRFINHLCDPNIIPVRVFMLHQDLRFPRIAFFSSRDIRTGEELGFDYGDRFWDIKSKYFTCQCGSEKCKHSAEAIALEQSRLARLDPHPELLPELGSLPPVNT
For each entry below, report its inhibition at 50 µM value.
Write the value in % as a bare number.

Record c1ccc(CN2CCC(Nc3nc(N4CCCC4)nc4ccccc34)CC2)cc1 [Compound 10] , field inhibition at 50 µM: 18.6

inhibition at 50 µM reported for this compound CN1CCCN(c2nc(NC3CCN(Cc4ccccc4)CC3)c3ccccc3n2)CC1 [Compound 4] : 7.9

The recorded inhibition at 50 µM for c1ccc(CN2CCC(Nc3nc(N4CCN(c5ccccn5)CC4)nc4ccccc34)CC2)cc1 [Compound 13] is 27.2

Entry c1ccc(CN2CCC(Nc3nc(N4CCN(c5ccccc5)CC4)nc4ccccc34)CC2)cc1 [Compound 14] ; inhibition at 50 µM = 16.5

----------
biological target: C-terminal catalytic domain of human DNMT3A (hDNMT3A) (Homo sapiens, UniProt Q9Y6K1); construct: catalytic domain of human DNMT3A (residues 623–908), produced as described; made in house; assay: DNMT3A assay (restriction-based fluorescence assay); format: biochemical; conditions: 100 µM compound; read-out: % inhibition ± SD hDNMT3A
Sequence (Q9Y6K1 627-912): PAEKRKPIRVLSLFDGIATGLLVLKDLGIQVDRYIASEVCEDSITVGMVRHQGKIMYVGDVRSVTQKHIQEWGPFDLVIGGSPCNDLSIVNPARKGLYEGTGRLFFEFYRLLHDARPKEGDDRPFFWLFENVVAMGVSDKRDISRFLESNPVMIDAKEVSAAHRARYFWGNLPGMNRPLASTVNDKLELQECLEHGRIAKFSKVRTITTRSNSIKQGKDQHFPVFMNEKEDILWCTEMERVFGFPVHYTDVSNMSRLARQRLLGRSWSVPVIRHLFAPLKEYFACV
Would you mind telling me the reported inhibition at 100 µM of each entry?
Put down the number, then write its unit next to it.

Query c1ccc(CN2CCC(Nc3nc(N4CCN(c5ccccc5)CC4)nc4ccccc34)CC2)cc1 [Compound 14] yields inhibition at 100 µM of 63%

The recorded inhibition at 100 µM for c1ccc(CN2CCC(Nc3nc(N4CCOCC4)nc4ccccc34)CC2)cc1 [Compound 12] is 7%

// inhibition at 100 µM value for c1ccc(CN2CCC(Nc3nc(N4CCSCC4)nc4ccccc34)CC2)cc1 [Compound 11] : 42%

For record CN1CCCN(c2nc(NC3CCN(Cc4ccccc4)CC3)c3ccccc3n2)CC1 [Compound 4] the listed inhibition at 100 µM is 67%

The compound listed as CC1CCCCN1c1nc(NC2CCN(Cc3ccccc3)CC2)c2ccccc2n1 (stereo not shown) [Compound 9] shows inhibition at 100 µM equal to 47%

inhibition at 100 µM for CN1CCN(c2nc(NC3CCN(Cc4ccccc4)CC3)c3ccccc3n2)CC1 [Compound 5] is 30%

Record summary for CN(C)CCCNc1nc(NC2CCN(Cc3ccccc3)CC2)c2ccccc2n1 [Compound 18] : reported inhibition at 100 µM = 8%

inhibition at 100 µM reading for O=C(c1ccccc1)N1CCN(c2nc(NC3CCN(Cc4ccccc4)CC3)c3ccccc3n2)CC1 [Compound 15] : 23%

In plain terms, COc1cc2nc(N3CCCN(C)CC3)nc(NC3CCN(Cc4ccccc4)CC3)c2cc1OC [Compound 1, BIX-01294, reference compound] has a documented inhibition at 100 µM of 12%

response.value for CC1CCN(c2nc(NC3CCN(Cc4ccccc4)CC3)c3ccccc3n2)CC1 [Compound 8] (field: inhibition at 100 µM) = 53%

Query CN(C)CCNc1nc(NC2CCN(Cc3ccccc3)CC2)c2ccccc2n1 [Compound 17] yields inhibition at 100 µM of 10%

For this compound ( c1ccc(CN2CCC(Nc3nc(N4CCCCC4)nc4ccccc34)CC2)cc1 [Compound 6] ), measured inhibition at 100 µM is 57%

The reported inhibition at 100 µM of the compound c1ccc(CN2CCC(Nc3nc(N4CCCC4)nc4ccccc34)CC2)cc1 [Compound 10] was 70%

The recorded inhibition at 100 µM for c1ccc(CN2CCC(Nc3nc(N4CCN(c5ccccn5)CC4)nc4ccccc34)CC2)cc1 [Compound 13] is 62%

Reported inhibition at 100 µM for OCCNc1nc(NC2CCN(Cc3ccccc3)CC2)c2ccccc2n1 [Compound 16] was 37%

The compound listed as c1ccc(CN2CCC(Nc3nc(N4CCCCCC4)nc4ccccc34)CC2)cc1 [Compound 7] shows inhibition at 100 µM equal to 57%

----------
target: C-terminal catalytic domain of human DNMT3A (hDNMT3A) (Homo sapiens); construct: catalytic domain of human DNMT3A (residues 623–908), produced as described; made in house; test: DNMT3A assay (restriction-based fluorescence assay); assay type: biochemical; details: 10 µM compound; read-out: % inhibition ± SD hDNMT3A
PROPERTY: inhibition at 10 µM (%)
Just the number please, in %, no unit attached.

Noted for c1ccc(CN2CCC(Nc3nc(N4CCCC4)nc4ccccc34)CC2)cc1 : its inhibition at 10 µM reads 21

Entry under test: CN1CCCN(c2nc(NC3CCN(Cc4ccccc4)CC3)c3ccccc3n2)CC1 . Its inhibition at 10 µM was 39

Recorded result, c1ccc(CN2CCC(Nc3nc(N4CCN(c5ccccc5)CC4)nc4ccccc34)CC2)cc1 , inhibition at 10 µM: 40

Record summary for CC1CCN(c2nc(NC3CCN(Cc4ccccc4)CC3)c3ccccc3n2)CC1 : reported inhibition at 10 µM = 14

Form: molecule = CC1CCCCN1c1nc(NC2CCN(Cc3ccccc3)CC2)c2ccccc2n1 (centres unmarked) ; inhibition at 10 µM = 5

Item: CN1CCN(c2nc(NC3CCN(Cc4ccccc4)CC3)c3ccccc3n2)CC1 | inhibition at 10 µM: 0

In plain terms, c1ccc(CN2CCC(Nc3nc(N4CCCCCC4)nc4ccccc34)CC2)cc1 has a documented inhibition at 10 µM of 16

Data point: c1ccc(CN2CCC(Nc3nc(N4CCN(c5ccccn5)CC4)nc4ccccc34)CC2)cc1 ; inhibition at 10 µM = 19

inhibition at 10 µM recorded for this molecule, c1ccc(CN2CCC(Nc3nc(N4CCSCC4)nc4ccccc34)CC2)cc1 , is 8

In plain terms, OCCNc1nc(NC2CCN(Cc3ccccc3)CC2)c2ccccc2n1 has a documented inhibition at 10 µM of 8

Looking up c1ccc(CN2CCC(Nc3nc(N4CCCCC4)nc4ccccc34)CC2)cc1 , I found its inhibition at 10 µM recorded as 14

----------
target: Human G9a (Homo sapiens); experiment: G9a assay (3H-AdoMet filter-binding); assay type: biochemical; details: 25.0 μM
Kindly state inhibition at 25 µM for each of the entries shown.
Record the value in %, omitting the unit from your answer.

Reported inhibition at 25 µM ( c1ccc(CN2CCC(Nc3nc(N4CCN(c5ccccc5)CC4)nc4ccccc34)CC2)cc1 [Compound 14] ) = 10.6

The reported value for c1ccc(CN2CCC(Nc3nc(N4CCN(c5ccccn5)CC4)nc4ccccc34)CC2)cc1 [Compound 13] in terms of inhibition at 25 µM is 11.1

Query c1ccc(CN2CCC(Nc3nc(N4CCCC4)nc4ccccc34)CC2)cc1 [Compound 10] yields inhibition at 25 µM of 13

Measured inhibition at 25 µM, CN1CCCN(c2nc(NC3CCN(Cc4ccccc4)CC3)c3ccccc3n2)CC1 [Compound 4] : 0

----------
molecular target: human G9a-like protein (GLP) (Homo sapiens, UniProt Q9H9B1); construct: catalytic SET domain (residues 734-1235; pXC758) were purified as described; made in house; experiment: GLP assay (histone methylation inhibition); type: biochemical; conditions: 8 μM inhibitor; read-out: Percent of GLP inhibition
Sequence (Q9H9B1 765-1266): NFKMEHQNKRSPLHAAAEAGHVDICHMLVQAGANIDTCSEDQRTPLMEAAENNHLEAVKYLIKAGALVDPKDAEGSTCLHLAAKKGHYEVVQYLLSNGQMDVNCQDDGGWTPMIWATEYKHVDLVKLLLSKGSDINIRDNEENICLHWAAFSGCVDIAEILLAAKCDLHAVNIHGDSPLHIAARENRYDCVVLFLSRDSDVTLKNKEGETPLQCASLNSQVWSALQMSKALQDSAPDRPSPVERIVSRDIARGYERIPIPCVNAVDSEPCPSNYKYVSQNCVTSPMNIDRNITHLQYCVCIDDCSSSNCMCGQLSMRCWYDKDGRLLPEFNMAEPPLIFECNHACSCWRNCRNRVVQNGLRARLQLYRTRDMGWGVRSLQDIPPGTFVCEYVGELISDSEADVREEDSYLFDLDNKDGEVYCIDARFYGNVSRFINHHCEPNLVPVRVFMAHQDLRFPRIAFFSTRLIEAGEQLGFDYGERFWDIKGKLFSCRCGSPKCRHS
Exercise: for every item that follows, state its recorded inhibition at 8 µM.

c1ccc(CN2CCC(Nc3nc(N4CCCC4)nc4ccccc34)CC2)cc1 [Compound 10] yielded inhibition at 8 µM of 9.2%

Measured inhibition at 8 µM, c1ccc(CN2CCC(Nc3nc(N4CCN(c5ccccc5)CC4)nc4ccccc34)CC2)cc1 [Compound 14] : 10%

Recorded result, COc1cc2nc(N3CCCN(C)CC3)nc(NC3CCN(Cc4ccccc4)CC3)c2cc1OC [Compound 1, BIX-01294, reference compound] , inhibition at 8 µM: 91.7%

Entry under test: c1ccc(CN2CCC(Nc3nc(N4CCN(c5ccccn5)CC4)nc4ccccc34)CC2)cc1 [Compound 13] . Its inhibition at 8 µM was 3.3%

The reported inhibition at 8 µM of the compound CN1CCCN(c2nc(NC3CCN(Cc4ccccc4)CC3)c3ccccc3n2)CC1 [Compound 4] was 0%

----------
PROPERTY: melting point

Entry under test: O=C(c1ccccc1)N1CCN(c2nc(NC3CCN(Cc4ccccc4)CC3)c3ccccc3n2)CC1 . Its melting point was 213 to 215 °C

melting point recorded for this compound, CC1CCN(c2nc(NC3CCN(Cc4ccccc4)CC3)c3ccccc3n2)CC1 , is 106 to 108 °C

Noted for CN(C)CCNc1nc(NC2CCN(Cc3ccccc3)CC2)c2ccccc2n1 : its melting point reads 120 to 122 °C

Entry under test: OCCNc1nc(NC2CCN(Cc3ccccc3)CC2)c2ccccc2n1 . Its melting point was 116 to 118 °C

Briefly, melting point measured for c1ccc(CN2CCC(Nc3nc(N4CCCCCC4)nc4ccccc34)CC2)cc1 : 119 to 122 °C

c1ccc(CN2CCC(Nc3nc(N4CCCC4)nc4ccccc34)CC2)cc1 has a reported melting point of 112 to 115 °C

Entry c1ccc(CN2CCC(Nc3nc(N4CCSCC4)nc4ccccc34)CC2)cc1 , melting point reported as 155 to 157 °C

melting point recorded for this compound, CC1CCCCN1c1nc(NC2CCN(Cc3ccccc3)CC2)c2ccccc2n1 (centres unmarked) , is 128 to 129 °C
